molecular target: TBK1 (Homo sapiens, UniProt Q9UHD2); construct: host or cells: RA1-ISRE beta-lactamase reporter cells; experiment: Inhibition of TBK1 in Cells (TLR3 driven ISRE β-lactamase reporter assay); assay type: cell-based; conditions: poly IC-LMW stimulation 16 hrs; -log(EC50), EC50 molar; read-out: Inhibition of TBK1 in cells pEC50 (EC) (converted)
Sequence (Q9UHD2 whole entry): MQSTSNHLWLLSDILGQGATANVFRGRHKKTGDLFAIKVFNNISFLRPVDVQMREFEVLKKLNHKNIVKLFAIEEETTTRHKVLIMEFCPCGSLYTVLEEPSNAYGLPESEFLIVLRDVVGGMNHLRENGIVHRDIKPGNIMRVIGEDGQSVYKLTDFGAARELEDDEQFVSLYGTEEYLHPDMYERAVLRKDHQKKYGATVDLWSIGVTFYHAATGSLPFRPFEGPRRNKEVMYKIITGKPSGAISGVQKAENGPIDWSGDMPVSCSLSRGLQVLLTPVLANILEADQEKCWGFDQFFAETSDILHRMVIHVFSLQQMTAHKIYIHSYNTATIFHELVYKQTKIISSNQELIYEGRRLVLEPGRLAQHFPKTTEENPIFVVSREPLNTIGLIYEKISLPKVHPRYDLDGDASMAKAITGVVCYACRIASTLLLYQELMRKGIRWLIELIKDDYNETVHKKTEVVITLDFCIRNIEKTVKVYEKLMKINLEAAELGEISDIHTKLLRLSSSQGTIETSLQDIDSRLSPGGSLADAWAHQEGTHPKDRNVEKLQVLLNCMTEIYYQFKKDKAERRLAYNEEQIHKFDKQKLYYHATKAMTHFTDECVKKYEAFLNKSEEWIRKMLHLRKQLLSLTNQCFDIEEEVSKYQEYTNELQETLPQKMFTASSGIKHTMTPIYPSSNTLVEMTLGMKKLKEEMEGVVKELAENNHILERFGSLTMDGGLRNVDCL
observed_property: EC50 (nM)

O=C(NCC(F)F)c1nc(-c2ccc3nc(NC(=O)C4CC4)cn3c2)cs1 = 537

[P] CC(NC(=O)c1nc(-c2ccc3nc(NC(=O)C4CC4)cn3c2)c[nH]1)C(F)(F)F (stereo not drawn)
[Q] C[C@@H](NC(=O)c1cc(-c2ccc3nc(NC(=O)C4CC4)cn3c2)cs1)C(F)(F)F
## Input Task for the reader: decide whether P or Q has the larger EC50. Pick one and reply with its label.
## Output P
